Molecular target: Serine/threonine-protein kinase PAK 4 (Homo sapiens) (UniProt O96013)
Sequence (O96013 whole entry, looked up): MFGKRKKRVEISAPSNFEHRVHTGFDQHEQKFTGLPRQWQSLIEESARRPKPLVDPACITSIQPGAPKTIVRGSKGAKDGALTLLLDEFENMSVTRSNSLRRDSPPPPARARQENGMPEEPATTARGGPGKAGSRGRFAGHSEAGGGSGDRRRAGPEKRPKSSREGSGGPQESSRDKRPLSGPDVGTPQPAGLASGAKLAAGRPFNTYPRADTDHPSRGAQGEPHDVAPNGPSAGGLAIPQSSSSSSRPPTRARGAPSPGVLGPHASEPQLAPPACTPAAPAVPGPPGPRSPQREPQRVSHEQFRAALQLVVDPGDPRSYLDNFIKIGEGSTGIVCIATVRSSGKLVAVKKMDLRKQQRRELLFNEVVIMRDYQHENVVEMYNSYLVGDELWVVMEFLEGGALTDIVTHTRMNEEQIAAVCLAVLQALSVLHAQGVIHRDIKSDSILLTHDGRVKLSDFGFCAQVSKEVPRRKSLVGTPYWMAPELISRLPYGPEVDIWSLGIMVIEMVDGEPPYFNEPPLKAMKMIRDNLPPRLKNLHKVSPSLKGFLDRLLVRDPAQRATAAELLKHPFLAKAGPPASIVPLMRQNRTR
Assay: Inhibition of PAK4 (unknown origin) at 1 uM
REPORTED ENDPOINT: inhibition (%)

- Nc1ncnc2c1sc1cc(-c3cccc(C(=O)NCC(=O)N4CCOCC4)c3)ccc12: 0

a: CN1CCN(C(=O)Nc2cccc(-c3ccc4c(c3)sc3c(N)ncnc34)c2)CC1
b: Nc1ncnc2c1sc1cc(-c3cccc(C(=O)NCCc4cccnc4)c3)ccc12
c: Nc1ncnc2c1sc1cc(-c3cccc(NC(=O)N4CCCC4)c3)ccc12
Inquiry: Descending sort on inhibition required. The reply should contain the labels ordered as requested.
Reply text: b, c, a

# credit: ChEMBL document CHEMBL3390844
